Data origin, for the record: paper PMC7655065

Target: HDAC6 (Homo sapiens, UniProt Q9UBN7)
Construct: EurofinPanlabs (Taipei, Taiwan)
Sequence (Q9UBN7 1-1215): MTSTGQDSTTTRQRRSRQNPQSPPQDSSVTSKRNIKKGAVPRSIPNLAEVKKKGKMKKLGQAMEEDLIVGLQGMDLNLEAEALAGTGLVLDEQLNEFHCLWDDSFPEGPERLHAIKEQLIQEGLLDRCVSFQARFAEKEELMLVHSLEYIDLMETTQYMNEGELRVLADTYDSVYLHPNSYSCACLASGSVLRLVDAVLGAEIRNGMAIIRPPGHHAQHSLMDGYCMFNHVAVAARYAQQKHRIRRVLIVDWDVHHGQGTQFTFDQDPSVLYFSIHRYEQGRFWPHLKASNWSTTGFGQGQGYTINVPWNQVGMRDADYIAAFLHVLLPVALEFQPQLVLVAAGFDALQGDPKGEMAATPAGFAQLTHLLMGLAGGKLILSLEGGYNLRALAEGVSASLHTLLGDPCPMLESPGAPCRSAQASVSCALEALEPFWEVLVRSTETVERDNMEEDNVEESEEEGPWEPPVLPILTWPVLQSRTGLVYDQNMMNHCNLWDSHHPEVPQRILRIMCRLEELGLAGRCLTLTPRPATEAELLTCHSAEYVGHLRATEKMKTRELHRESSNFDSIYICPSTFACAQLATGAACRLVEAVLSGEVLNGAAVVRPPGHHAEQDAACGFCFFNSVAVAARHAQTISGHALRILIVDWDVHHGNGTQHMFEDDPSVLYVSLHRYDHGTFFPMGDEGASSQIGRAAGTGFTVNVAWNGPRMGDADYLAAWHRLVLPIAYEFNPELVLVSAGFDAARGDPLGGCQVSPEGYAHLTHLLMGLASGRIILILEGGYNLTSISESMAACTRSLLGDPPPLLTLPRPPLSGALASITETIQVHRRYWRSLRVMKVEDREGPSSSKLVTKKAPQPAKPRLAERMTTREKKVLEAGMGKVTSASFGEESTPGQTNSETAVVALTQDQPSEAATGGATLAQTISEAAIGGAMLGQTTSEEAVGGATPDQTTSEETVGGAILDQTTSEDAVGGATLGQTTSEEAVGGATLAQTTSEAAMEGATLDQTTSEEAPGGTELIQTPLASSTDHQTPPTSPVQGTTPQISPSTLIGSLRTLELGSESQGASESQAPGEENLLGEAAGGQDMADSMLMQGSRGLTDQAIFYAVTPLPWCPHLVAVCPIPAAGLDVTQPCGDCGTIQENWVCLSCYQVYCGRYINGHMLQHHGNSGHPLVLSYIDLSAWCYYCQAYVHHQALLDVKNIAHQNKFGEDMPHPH
Assay: HDAC biochemical assay (Fluor-de-Lys), HDAC6
Details: human recombinant HDAC6
pIC50: −log10 of the molar value.
QUANTITY: pIC50

O=C(NO)c1ccc(CNc2cccc3cc(-c4ccco4)cnc23)cc1 ... 7.68
N#Cc1cccc(-c2cnc3c(NCc4ccc(C(=O)NO)cc4)cccc3c2)c1 ... 7.44
O=C(NO)c1ccc(CNc2cccc3cc(-c4ccncc4)cnc23)cc1 ... 8.06
O=C(NO)c1ccc(CNc2cccc3cc(-c4ccoc4)cnc23)cc1 ... 7.87
O=C(NO)c1ccc(CNc2cccc3cc(-c4ccsc4)cnc23)cc1 ... 7.52

1. O=C(NO)c1ccc(CNc2cccc3cc(Cl)cnc23)cc1
2. O=C(NO)c1ccc(CNc2cccc3cc(-c4cccnc4)cnc23)cc1
3. COc1cnc2c(NCc3ccc(C(=O)NO)cc3)cccc2c1
input: Task for the reader: rank each entry by its pIC50, from the minimum upward. # output: labels, in the requested order
output: 1, 3, 2
(1: 7.69, 3: 8.11, 2: 8.32)

----------
molecular target: HDAC2 (Homo sapiens, UniProt Q92769); construct: EurofinPanlabs (Taipei, Taiwan); assay: HDAC biochemical assay (Fluor-de-Lys), HDAC2; details: human recombinant HDAC2; dash = no inhibition or activity that could not be fitted to an IC50 curve
Sequence (Q92769 whole entry): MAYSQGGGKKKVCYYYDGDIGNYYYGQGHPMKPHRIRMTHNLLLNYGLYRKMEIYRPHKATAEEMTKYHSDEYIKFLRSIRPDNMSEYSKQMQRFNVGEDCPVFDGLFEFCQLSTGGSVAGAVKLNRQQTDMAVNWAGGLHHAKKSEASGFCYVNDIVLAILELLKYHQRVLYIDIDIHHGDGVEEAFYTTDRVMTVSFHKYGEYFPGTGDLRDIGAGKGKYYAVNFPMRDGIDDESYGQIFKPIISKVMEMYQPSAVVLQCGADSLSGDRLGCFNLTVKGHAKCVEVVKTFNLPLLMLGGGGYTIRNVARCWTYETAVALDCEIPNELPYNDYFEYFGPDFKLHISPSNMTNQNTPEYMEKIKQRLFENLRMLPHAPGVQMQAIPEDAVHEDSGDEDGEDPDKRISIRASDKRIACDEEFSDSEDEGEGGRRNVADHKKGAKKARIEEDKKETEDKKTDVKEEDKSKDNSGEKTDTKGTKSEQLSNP
QUANTITY: IC50 (nM)

O=C(NO)c1ccc(CNc2cccc3cc(-c4ccco4)cnc23)cc1 ... 1280

I. O=C(NO)c1ccc(CNc2cccc3cc(-c4cccnc4)cnc23)cc1
II. O=C(NO)c1ccc(CNc2cccc3cc(-c4ccoc4)cnc23)cc1
input: When the recorded IC50 values are compared, which is smaller: that of I or that of II ? Bench note: the answer is the label of the chosen record.
output: I

----------
target: HDAC1 (Homo sapiens); construct: EurofinPanlabs (Taipei, Taiwan); experiment: HDAC biochemical assay (Fluor-de-Lys), HDAC1; details: human recombinant HDAC1; values > 10 μM estimated from best curve fitting
QUANTITY: IC50 (µM)

O=C(NO)c1ccc(CNc2cccc3cc(-c4ccccc4)cnc23)cc1 ... 5.3

1. O=C(NO)c1ccc(CNc2cccc3cc(-c4ccoc4)cnc23)cc1
2. N#Cc1cccc(-c2cnc3c(NCc4ccc(C(=O)NO)cc4)cccc3c2)c1
3. O=C(NO)c1ccc(CNc2cccc3cc(-c4cccnc4)cnc23)cc1
input: Task for the reader: rank each entry by its IC50, from the minimum upward. # output: labels, in the requested order
output: 3, 1, 2

I. O=C(NO)c1ccc(CNc2cccc3cc(-c4ccco4)cnc23)cc1
II. O=C(NO)c1ccc(CNc2cccc3cc(-c4ccncc4)cnc23)cc1
input: Thinking about recorded IC50 values, which is higher, I or II ? Bench note: the answer is the label of the chosen record.
output: II
(II: 5.13 µM, I: 3.4 µM)

----------
Target: HDAC8 (Homo sapiens)
Construct: EurofinPanlabs (Taipei, Taiwan)
Sequence (Q9BY41 1-377): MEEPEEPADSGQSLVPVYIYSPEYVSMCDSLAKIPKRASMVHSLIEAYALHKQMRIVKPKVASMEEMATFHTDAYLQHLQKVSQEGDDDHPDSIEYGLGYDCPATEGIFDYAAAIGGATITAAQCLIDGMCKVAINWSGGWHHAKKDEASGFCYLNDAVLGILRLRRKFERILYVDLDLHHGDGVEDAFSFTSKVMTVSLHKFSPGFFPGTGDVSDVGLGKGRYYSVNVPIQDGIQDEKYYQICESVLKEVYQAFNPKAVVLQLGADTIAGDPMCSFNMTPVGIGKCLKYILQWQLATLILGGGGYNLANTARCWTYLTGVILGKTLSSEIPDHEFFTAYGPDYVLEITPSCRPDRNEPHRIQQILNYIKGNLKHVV
Assay: HDAC biochemical assay (Fluor-de-Lys), HDAC8
Conditions: IC50 HDAC8 / IC50 HDAC6
QUANTITY: Selectivity ratio of HDAC8 over HDAC6

Example compounds with recorded Selectivity ratio of HDAC8 over HDAC6:
N#Cc1cccc(-c2cnc3c(NCc4ccc(C(=O)NO)cc4)cccc3c2)c1 ... (106)
O=C(NO)c1ccc(CNc2cccc3cc(-c4cccnc4)cnc23)cc1 ... (379)
O=C(NO)c1ccc(CNc2cccc3cc(-c4ccoc4)cnc23)cc1 ... (216)
O=C(NO)c1ccc(CNc2cccc3cc(-c4ccco4)cnc23)cc1 ... (152)
O=C(NO)c1ccc(CNc2cccc3cc(-c4ccccc4)cnc23)cc1 ... (355)

input: Fill in reported Selectivity ratio of HDAC8 over HDAC6 for this entry: O=C(NO)c1ccc(CNc2cccc3cc(-c4ccsc4)cnc23)cc1
output: (164)

input: Fill in reported Selectivity ratio of HDAC8 over HDAC6 for this entry: O=C(NO)c1ccc(CNc2cccc3cc(-c4ccncc4)cnc23)cc1
output: (273)

----------
target: HDAC1 (Homo sapiens, UniProt Q13547); construct: EurofinPanlabs (Taipei, Taiwan); assay: HDAC biochemical assay (Fluor-de-Lys), HDAC1; conditions: IC50 HDAC1 / IC50 HDAC6
Sequence (Q13547 whole entry): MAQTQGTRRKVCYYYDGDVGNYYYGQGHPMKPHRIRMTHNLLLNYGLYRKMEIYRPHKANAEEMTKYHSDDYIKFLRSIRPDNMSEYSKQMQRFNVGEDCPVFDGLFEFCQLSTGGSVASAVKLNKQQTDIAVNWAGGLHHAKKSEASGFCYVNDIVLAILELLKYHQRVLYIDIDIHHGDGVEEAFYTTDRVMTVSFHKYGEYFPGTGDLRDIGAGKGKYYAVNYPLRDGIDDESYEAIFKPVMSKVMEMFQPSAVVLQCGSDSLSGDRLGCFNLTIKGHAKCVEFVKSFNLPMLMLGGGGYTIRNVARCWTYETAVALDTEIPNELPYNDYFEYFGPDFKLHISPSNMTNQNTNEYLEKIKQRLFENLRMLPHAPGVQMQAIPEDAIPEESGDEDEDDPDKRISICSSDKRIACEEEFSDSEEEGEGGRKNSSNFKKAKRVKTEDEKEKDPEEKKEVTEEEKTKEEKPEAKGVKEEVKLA
QUANTITY: Selectivity ratio of HDAC1 over HDAC6

Example compounds with recorded Selectivity ratio of HDAC1 over HDAC6:
O=C(NO)c1ccc(CNc2cccc3cc(-c4ccsc4)cnc23)cc1 [Compound 29] ... (199)
O=C(NO)c1ccc(CNc2cccc3cc(-c4ccncc4)cnc23)cc1 [Compound 26] ... (596)
O=C(NO)c1ccc(CNc2cccc3cc(-c4cccnc4)cnc23)cc1 [Compound 25] ... (552)
N#Cc1cccc(-c2cnc3c(NCc4ccc(C(=O)NO)cc4)cccc3c2)c1 [Compound 22] ... (252)
O=C(NO)c1ccc(CNc2cccc3cc(-c4ccccc4)cnc23)cc1 [Compound 18] ... (273)
O=C(NO)c1ccc(CNc2cccc3cc(-c4ccco4)cnc23)cc1 [Compound 27] ... (164)

input: Please report Selectivity ratio of HDAC1 over HDAC6 with HDAC1 (Homo sapiens, UniProt Q13547) for item O=C(NO)c1ccc(CNc2cccc3cc(-c4ccoc4)cnc23)cc1 [Compound 28] .
output: (343)

----------
molecular target: HDAC2 (Homo sapiens); construct: EurofinPanlabs (Taipei, Taiwan); assay: HDAC biochemical assay (Fluor-de-Lys), HDAC2; conditions: human recombinant HDAC2; dash = no inhibition or activity that could not be fitted to an IC50 curve
QUANTITY: IC50 (nM)

O=C(NO)c1ccc(CNc2cccc3cc(-c4ccncc4)cnc23)cc1 ... 2890

I. O=C(NO)c1ccc(CNc2cccc3cc(-c4ccsc4)cnc23)cc1
II. N#Cc1cccc(-c2cnc3c(NCc4ccc(C(=O)NO)cc4)cccc3c2)c1
input: When the recorded IC50 values are compared, which is smaller: that of I or that of II ? Bench note: the answer is the label of the chosen record.
output: II
(II: 1980 nM, I: 3520 nM)
